Taken from ChEMBL document CHEMBL4152256.

- assay.info: Genotoxicity in Salmonella typhimurium TA1535 harboring pSK1002 assessed as survival at 1 mg/ml in presence of Sprague-Dawley rat liver S9 fraction after by SOS/umu assay relative to control
- Assay type: toxicity, organism-based
- condition.notes: salmonella enterica subsp. enterica serovar typhimurium, read-out: Survival
metric: viability at 1 mg/ml (%)
Give the number; % is assumed, so skip it.

Query: Report viability at 1 mg/ml, nothing else, for this compound: COc1ccccc1C1=CCN(CCC(O)c2ccc(F)cc2)CC1 (stereo not drawn)
Reply: 32.2

Query: Please supply the value of reported viability at 1 mg/ml for the item OC(CCN1CCN(c2ccccc2C(F)(F)F)CC1)c1ccc(F)cc1 (stereo not drawn)
Reply: 97

Query: Query viability at 1 mg/ml for OC(CCN1CCN(c2ccccc2C(F)(F)F)CC1)c1ccc(F)c2ccccc12 (stereo in doubt; 55)
Reply: 164
